Recorded values, source patent US9834542B2.

Target: LXRβ (Homo sapiens)
Construct: Co-transfection expression plasmids, comprising full-length LXRα (pCMX-h LXRα[…] or LXRβ (pCMX-hLXRβ)); expressed in transfected cells; host or cells: CV-1 African Green Monkey Kidney Cells
Experiment: Co-transfection assay (LXRE luciferase reporter), LXRβ
Type: cell-based
Conditions: LXRβ co-transfection; relative to high control 1-(2,4-difluorobenzyl)-2-oxo-6-(4-phenoxyphenyl)-4-(trifluoromethyl)-1,2-dihydropyridine-3-carbonitrile; read-out: % Efficacy
Procedure: To measure the ability of compounds to activate or inhibit the transcriptional activity of LXR in a cell based assay, the co-transfection assay was used. It has been shown that LXR functions as a heterodimer with RXR. […] Treatment of transfected cells with an LXR agonist increases the transcriptional activity of LXR, which is measured by an increase in luciferase activity. […]
ASSAY METRIC: Emax (%)

MOLECULAR STRING | ASSAY METRIC | VAL
Cc1nc(C(F)(F)F)cn1-c1ccc(-c2cccc(S(C)(=O)=O)c2)cc1-n1nncc1-c1ccc(OC(F)(F)F)cc1F | Emax | 87
Cc1nc(-c2cc(-c3ccc(CO)c(S(C)(=O)=O)c3)ccc2-n2cc(C(F)(F)F)nc2C)c(-c2ccc(F)c(F)c2)o1 | Emax | 71
Cc1nc(C(F)(F)F)cn1-c1ccc(-c2cccc(S(C)(=O)=O)c2)cc1-c1nc(C(C)C)oc1-c1ccc2c(c1)OC(F)(F)O2 | Emax | 74
Cc1nc(C(F)(F)F)cn1-c1ccc(-c2cccc(S(C)(=O)=O)c2)cc1-n1nncc1Cc1cccc(Cl)c1 | Emax | 100
Cc1nc(C(F)(F)C(C)C)cn1-c1ccc(-c2cccc(S(C)(=O)=O)c2)cc1-n1nncc1-c1ccc(OC(F)(F)F)cc1 | Emax | 59
Cc1nc(-c2cc(-c3cccc(S(C)(=O)=O)c3)ccc2-n2cc(C(F)(F)F)nc2C)c(-c2cc(F)c(OC(F)F)c(F)c2)o1 | Emax | 78

###

Molecular target: LXRβ (Homo sapiens, UniProt P55055)
Construct: Co-transfection expression plasmids, comprising full-length LXRα (pCMX-h LXRα[…] or LXRβ (pCMX-hLXRβ))
Sequence (P55055 1-460): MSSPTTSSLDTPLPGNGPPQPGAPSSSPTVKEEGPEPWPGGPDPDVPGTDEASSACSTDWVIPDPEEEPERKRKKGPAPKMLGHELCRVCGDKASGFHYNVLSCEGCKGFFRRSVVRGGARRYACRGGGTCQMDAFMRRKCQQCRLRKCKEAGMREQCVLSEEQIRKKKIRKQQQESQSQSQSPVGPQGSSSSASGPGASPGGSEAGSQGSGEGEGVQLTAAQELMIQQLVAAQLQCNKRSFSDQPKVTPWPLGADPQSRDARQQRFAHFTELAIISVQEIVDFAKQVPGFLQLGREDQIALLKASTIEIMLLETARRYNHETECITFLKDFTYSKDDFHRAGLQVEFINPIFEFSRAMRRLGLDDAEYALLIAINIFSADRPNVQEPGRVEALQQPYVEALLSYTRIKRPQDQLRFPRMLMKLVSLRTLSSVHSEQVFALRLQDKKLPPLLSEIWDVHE
Sequence (P19793 1-462 partner): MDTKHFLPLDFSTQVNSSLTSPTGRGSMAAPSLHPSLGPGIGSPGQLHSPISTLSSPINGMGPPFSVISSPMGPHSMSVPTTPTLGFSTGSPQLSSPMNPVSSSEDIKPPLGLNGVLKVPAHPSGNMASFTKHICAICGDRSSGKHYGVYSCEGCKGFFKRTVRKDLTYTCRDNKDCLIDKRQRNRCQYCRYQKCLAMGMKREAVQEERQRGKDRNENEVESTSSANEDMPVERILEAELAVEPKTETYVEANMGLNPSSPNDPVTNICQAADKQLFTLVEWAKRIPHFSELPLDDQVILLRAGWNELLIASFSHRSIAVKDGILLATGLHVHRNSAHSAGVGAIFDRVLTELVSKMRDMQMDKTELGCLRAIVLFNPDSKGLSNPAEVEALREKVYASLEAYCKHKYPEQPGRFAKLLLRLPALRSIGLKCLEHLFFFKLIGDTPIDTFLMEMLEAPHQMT
Test: Co-transfection assay (LXRE luciferase reporter), LXRβ
Details: CV-1 cells transfected with pCMX-hLXRβ and LXREx1-Tk-Luciferase; 20 hours incubation
ASSAY METRIC: EC50 (nM)

# annotated cases, reported EC50 shown
COMPOUND | EC50 [nM]
COc1ncc(-c2oc(C)nc2-c2cc(-c3cc(F)c(CO)c(S(C)(=O)=O)c3)ccc2-n2cc(C(F)(F)F)nc2C)cc1F [Example 440] | 214
Cc1nc(C(F)(F)F)cn1-c1ccc(-c2cccc(S(C)(=O)=O)c2)cc1-n1nncc1-c1ccc(OC(F)(F)F)c(F)c1 [Example 54] | 148
Cc1nc(-c2ccccc2C(F)(F)F)c(-c2cc(-c3cc(F)c(CO)c(S(C)(=O)=O)c3)ccc2-n2cc(C(F)(F)F)nc2C)o1 [Example 630] | 103
Cc1nc(C(F)F)cn1-c1ccc(-c2cccc(S(C)(=O)=O)c2)cc1-n1nncc1-c1ccc(OC(F)(F)F)c(F)c1 [Example 169] | 570

1 = Cc1nc(-c2cc(-c3ccc(CO)c(S(C)(=O)=O)c3)ccc2-n2cc(C(F)(F)F)nc2C)c(-c2ccc(OC(F)F)c(F)c2)o1 [Example 402]
2 = Cc1nc(-c2cc(-c3cccc(S(C)(=O)=O)c3)ccc2-n2cc(C(F)(F)F)nc2C)c(-c2ccc(OC(CF)CF)c(F)c2)o1 [Example 406]
(Q) // pick min by EC50: 1 , 2 State your choice using its label.
(A) 1

###

target: LXRβ (Homo sapiens, UniProt P55055); construct: Co-transfection expression plasmids, comprising full-length LXRα (pCMX-h LXRα[…] or LXRβ (pCMX-hLXRβ)); assay: Co-transfection assay (LXRE luciferase reporter), LXRβ; settings: CV-1 cells transfected with pCMX-hLXRβ and LXREx1-Tk-Luciferase; 20 hours incubation
pEC50: −log10 of the molar value.
ASSAY METRIC: pEC50

P = Cc1nc(C(F)(F)F)cn1-c1ccc(-c2cc(F)c(CO)c(S(C)(=O)=O)c2)cc1-c1oc(C(C)C)nc1-c1ccc(OC(F)(F)F)cc1
Q = Cc1nc(-c2ccc(Cl)cc2)c(-c2cc(-c3cc(F)c(CO)c(S(C)(=O)=O)c3)ccc2-n2cc(C(F)(F)F)nc2C)o1
R = Cc1nc(C(F)(F)F)cn1-c1ccc(-c2cccc(S(C)(=O)=O)c2)cc1-c1ncoc1-c1ccc(Cl)cc1
(Q) Lab note: arrange the 3 molecules above from lowest to highest pEC50. To answer, arrange all of the labels according to the requested order.
(A) R, Q, P

###

target: LXRβ (Homo sapiens, UniProt P55055); construct: Co-transfection expression plasmids, comprising full-length LXRα (pCMX-h LXRα[…] or LXRβ (pCMX-hLXRβ)); expressed in transfected cells; host or cells: CV-1 African Green Monkey Kidney Cells; test: Co-transfection assay (LXRE luciferase reporter), LXRβ; assay type: cell-based; conditions: LXRβ co-transfection; relative to high control 1-(2,4-difluorobenzyl)-2-oxo-6-(4-phenoxyphenyl)-4-(trifluoromethyl)-1,2-dihydropyridine-3-carbonitrile; read-out: % Efficacy
ASSAY METRIC: Emax (%)

Worked examples, 4 compounds total:
COMPOUND | Emax (%)
CCC(F)(F)c1cn(-c2ccc(-c3cccc(S(C)(=O)=O)c3)cc2-n2nncc2-c2ccc(OC(F)(F)F)cc2)c(C)n1 [Example 184] | 86
Cc1nc(C(C)(F)F)cn1-c1ccc(-c2cccc(S(=O)(=O)N(C)C)c2)cc1-n1nncc1-c1ccc(OC(F)(F)F)cc1 [Example 181] | 70
Cc1nc(C(F)(F)F)cn1-c1ccc(-c2cc(F)c(CO)c(S(C)(=O)=O)c2)cc1-n1nncc1-c1ccc(Cl)cc1Cl [Example 67] | 81
CCS(=O)(=O)c1cccc(-c2ccc(-n3cc(C(F)F)nc3C)c(-n3nncc3C(C)c3ccc(Cl)cc3)c2)c1 (stereo not drawn) [Example 131] | 77

P = Cc1nc(-c2ccc(OC(F)(F)F)cc2O)c(-c2cc(-c3cccc(S(C)(=O)=O)c3)ccc2-n2cc(C(F)(F)F)nc2C)o1 [Example 626]
Q = Cc1nc(-c2ccccc2OC(F)(F)F)c(-c2cc(-c3cc(F)c(CO)c(S(C)(=O)=O)c3)ccc2-n2cc(C(F)(F)F)nc2C)o1 [Example 632]
(Q) Select the item whose Emax value is smaller, choosing between P and Q . Please respond with the label that marks your chosen entry.
(A) Q
(Q: 41%, P: 62%)

###

Target: LXRβ (Homo sapiens)
Construct: Co-transfection expression plasmids, comprising full-length LXRα (pCMX-h LXRα[…] or LXRβ (pCMX-hLXRβ)); expressed in transfected cells; host or cells: CV-1 African Green Monkey Kidney Cells
Sequence (P55055 1-460): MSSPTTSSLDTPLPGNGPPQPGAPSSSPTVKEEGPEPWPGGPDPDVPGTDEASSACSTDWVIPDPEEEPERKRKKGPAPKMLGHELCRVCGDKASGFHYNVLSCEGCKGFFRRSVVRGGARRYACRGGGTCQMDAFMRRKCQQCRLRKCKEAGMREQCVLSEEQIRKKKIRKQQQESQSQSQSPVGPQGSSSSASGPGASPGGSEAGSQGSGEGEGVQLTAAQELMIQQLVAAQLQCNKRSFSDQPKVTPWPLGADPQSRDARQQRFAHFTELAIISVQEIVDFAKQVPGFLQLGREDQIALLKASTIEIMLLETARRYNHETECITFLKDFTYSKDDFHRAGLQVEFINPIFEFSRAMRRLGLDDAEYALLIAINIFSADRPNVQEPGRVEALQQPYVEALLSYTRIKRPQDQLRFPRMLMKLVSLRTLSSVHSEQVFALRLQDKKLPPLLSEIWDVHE
Sequence (P19793 1-462 partner): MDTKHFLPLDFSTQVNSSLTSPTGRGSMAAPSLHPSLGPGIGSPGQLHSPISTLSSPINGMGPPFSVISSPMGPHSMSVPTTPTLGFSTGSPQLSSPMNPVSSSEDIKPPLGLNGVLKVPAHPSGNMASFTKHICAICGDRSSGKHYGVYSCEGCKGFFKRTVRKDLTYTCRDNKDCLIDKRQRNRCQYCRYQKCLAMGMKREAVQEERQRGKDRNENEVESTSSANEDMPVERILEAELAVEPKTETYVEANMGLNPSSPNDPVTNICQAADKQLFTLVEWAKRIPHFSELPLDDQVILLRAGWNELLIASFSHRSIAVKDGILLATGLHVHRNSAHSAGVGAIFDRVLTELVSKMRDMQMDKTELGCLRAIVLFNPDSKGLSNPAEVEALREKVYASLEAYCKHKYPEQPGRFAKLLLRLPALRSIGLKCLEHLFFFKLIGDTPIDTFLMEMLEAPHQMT
Assay: Co-transfection assay (LXRE luciferase reporter), LXRβ
Assay type: cell-based
Conditions: LXRβ co-transfection; relative to high control 1-(2,4-difluorobenzyl)-2-oxo-6-(4-phenoxyphenyl)-4-(trifluoromethyl)-1,2-dihydropyridine-3-carbonitrile; read-out: % Efficacy
ASSAY METRIC: Emax (%)

Use these answered entries as a reference point.
COMPOUND | Emax / %
Cc1nc(C(F)(F)F)cn1-c1ccc(-c2cccc(S(C)(=O)=O)c2)cc1-n1nncc1C(C)(F)c1ccc(Cl)cc1 (centres unmarked) | 57
Cc1nc(-c2ccc(OC(F)(F)F)cc2)c(-c2cc(-c3cccc(S(C)(=O)=O)c3)ccc2-n2cc(C(F)(F)F)nc2C)o1 | 86
Cc1nc(-c2cc(-c3cccc(C4(C(N)=O)CC4)c3)ccc2-n2cc(C(F)(F)F)nc2C)c(-c2ccc3c(c2)OC(F)(F)O3)o1 | 51
CCS(=O)(=O)c1cc(-c2ccc(-n3cc(C(F)(F)F)nc3C)c(-n3nncc3-c3ccc(OC(F)(F)F)cc3)c2)cc(F)c1CO | 93

1 = Cc1nc(-c2cc(-c3cc(F)c(CO)c(S(C)(=O)=O)c3)ccc2-n2cc(C(F)(F)F)nc2C)c(-c2cccnc2OC(F)F)o1
2 = Cc1nc(-c2cc(-c3cccc(S(=O)(=O)C4CC4)c3)ccc2-n2cc(C(F)(F)F)nc2C)c(-c2ccc(OC(F)F)c(F)c2)o1
(Q) Hi, I'm comparing two records. Which one has the lower Emax, 1 or 2 ? Respond with the label that goes with your answer.
(A) 1

a = COc1cc(-c2oc(C)nc2-c2cc(-c3cccc(S(C)(=O)=O)c3)ccc2-n2cc(C(F)(F)F)nc2C)ccc1OC(F)F
b = Cc1nc(-c2cc(-c3cc(F)c(CO)c(S(C)(=O)=O)c3)ccc2-n2cc(C(F)(F)F)nc2C)c(-c2cccnc2C)o1
c = Cc1nc(C(F)F)c(C)n1-c1ccc(-c2cccc(S(C)(=O)=O)c2)cc1-n1nncc1-c1ccc(Cl)cc1
d = COc1cc(OC(F)(F)F)ccc1-c1nc(C)oc1-c1cc(-c2cccc(S(C)(=O)=O)c2)ccc1-n1cc(C(F)(F)F)nc1C
(Q) Exam item: list the entries in increasing order of Emax. List the labels, following the order given in the request.
(A) c, d, b, a

1 = Cc1nc(C(F)(F)F)cn1-c1ccc(-c2cccc(S(C)(=O)=O)c2)cc1-n1nncc1-c1ccc(Cl)c(F)c1
2 = CCS(=O)(=O)c1cccc(-c2ccc(-n3cc(C(F)(F)F)nc3C)c(-n3nncc3C(F)(F)c3ccc(Cl)cc3)c2)c1
3 = Cc1nc(C(F)(F)F)cn1-c1ccc(-c2cc(Cl)c(CO)c(S(C)(=O)=O)c2)cc1-n1nncc1-c1ccc(Cl)cc1
(Q) Place the items in sequence of falling Emax. Please list the labels according to the requested order.
(A) 1, 2, 3
(1: 113%, 2: 63%, 3: 40%)

1 = Cc1nc(-c2ccc(Cl)cc2Cl)c(-c2cc(-c3cccc(S(C)(=O)=O)c3)ccc2-n2cc(C(F)(F)F)nc2C)o1
2 = Cc1nc(-c2cc(-c3cc(F)c(CO)c(S(C)(=O)=O)c3)ccc2-n2cc(C(F)(F)F)nc2C)c(-c2ccc(F)c(OC(F)F)c2)o1
3 = Cc1nc(C(F)(F)F)cn1-c1ccc(-c2cccc(S(C)(=O)=O)c2)cc1-c1nc(C(F)(F)F)cn1-c1ccc(Cl)nc1
(Q) List by increasing Emax. Reply with the labels, ordered as the question asks.
(A) 3, 2, 1
